# System: U3017 cells
# Protocol text: Survival assay (MTT), U3017
# Type: cell-based, human
# Stated conditions: Homo sapiens, U3017, Glioma, Grade IV, 72 hours
pIC50: −log10 of the molar value.
Readout name: pIC50

Known pIC50 results, listed for orientation:
Nc1nc(=O)n([C@H]2C[C@H](O)[C@@H](CO)O2)cc1C=O : < 4.00
Nc1nc(=O)n([C@H]2C[C@H](O)[C@@H](CO)O2)cc1CO [2d5hmC, 5-hydroxymethyl-2′-deoxycytidine] : 4.85

Now for the compound whose pIC50 we want.
The recorded pIC50 for Cn1nnc2c(C(N)=O)ncn2c1=O [Temozolomide, reference compound] is < 4.00
